- Tested on: HeLa
Label key: Met means GI50 under 10 µM; Not met means GI50 of 10 µM or more.

Qu. Item C/C=C\[C@H](C)[C@H]1OC1(C)[C@@H](O[Si](C)(C)C(C)(C)C)[C@@H](COC(C)=O)C(=O)[C@H](CO)[C@@H](O)CC(=O)CC (some centres unmarked) : GI50 beneath 10 µM, strictly?
Ans. Met

Qu. Item C/C=C\[C@H](C)[C@H]1OC1(C)[C@@H](O)[C@@H](CO)C(=O)[C@H](CO)[C@H](O)CC(=O)CC (some centres unmarked) : GI50 beneath 10 µM, strictly?
Ans. Met

Qu. Item C/C=C\[C@H](C)[C@H]1OC1(C)[C@@H](O[Si](C)(C)C(C)(C)C)[C@@H](CO)C(=O)[C@@H](CO)[C@H](O)CC(=O)CC (some centres unmarked) [31b + 31d] : GI50 beneath 10 µM, strictly?
Ans. Not met

Qu. Item C/C=C\[C@H](C)[C@H]1OC1(C)[C@@H](O[Si](C)(C)C(C)(C)C)[C@@H](CO[Si](C)(C)C(C)(C)C)C(=O)[C@@H](CO[Si](C)(C)C(C)(C)C)[C@H](CC(=O)CC)O[Si](C)(C)C(C)(C)C (some centres unmarked) [Compound 30a] : GI50 beneath 10 µM, strictly?
Ans. Not met

Qu. Item C/C=C\[C@H](C)[C@H]1OC1(C)[C@@H](O)[C@@H](CO)C(=O)[C@@H](CO)[C@H](O)CC(=O)CC (some centres unmarked) : GI50 beneath 10 µM, strictly?
Ans. Not met

Qu. Item C/C=C\[C@H](C)[C@H]1OC1(C)[C@@H](O[Si](C)(C)C(C)(C)C)[C@@H](CO[Si](C)(C)C(C)(C)C)C(=O)[C@H](CO[Si](C)(C)C(C)(C)C)[C@H](CC(=O)CC)O[Si](C)(C)C(C)(C)C (some centres unmarked) [Compound 19a] : GI50 beneath 10 µM, strictly?
Ans. Not met

Qu. Item C/C=C\[C@H](C)[C@H]1OC1(C)[C@@H](O[Si](C)(C)C(C)(C)C)[C@@H](COC(C)=O)C(=O)[C@H](COC(C)=O)[C@H](O)CC(=O)CC (some centres unmarked) : GI50 beneath 10 µM, strictly?
Ans. Met

Qu. Item C/C=C\[C@H](C)[C@H]1OC1(C)[C@@H](O[Si](C)(C)C(C)(C)C)[C@@H](CO)C(=O)[C@H](CO)[C@@H](O)CC(=O)CC (some centres unmarked) [20a + 20c] : GI50 beneath 10 µM, strictly?
Ans. Not met

Qu. Item C/C=C\[C@H](C)[C@H]1OC1(C)[C@@H](O[Si](C)(C)C(C)(C)C)[C@@H](CO)C(=O)[C@H](CO)[C@H](O)CC(=O)CC (some centres unmarked) [20b + 20d] : GI50 beneath 10 µM, strictly?
Ans. Not met

Qu. Item C/C=C\[C@H](C)[C@H]1OC1(C)[C@@H](O[Si](C)(C)C(C)(C)C)[C@@H](COC(C)=O)C(=O)[C@H](CO)[C@H](O)CC(=O)CC (some centres unmarked) : GI50 beneath 10 µM, strictly?
Ans. Met

Qu. Item C/C=C\[C@H](C)[C@H]1OC1(C)[C@@H](O[Si](C)(C)C(C)(C)C)[C@@H](CO[Si](C)(C)C(C)(C)C)C(=O)[C@@H](CO[Si](C)(C)C(C)(C)C)[C@@H](CC(=O)CC)O[Si](C)(C)C(C)(C)C (some centres unmarked) [Compound 30b] : GI50 beneath 10 µM, strictly?
Ans. Not met
